All figures here come from the NIST ThermoML archive (doi:10.1016/j.jct.2005.01.007).

Experiment: refractive index (Na D-line) (dimensionless)
Conditions: 298.15 K; 101.33 kPa; Liquid; Standard Abbe refractometry
Provide the reported refractive index of each item.
Simply state the number, no unit and no words.

Incoming: Given CCc1ccccc1 [ethylbenzene] , state its recorded refractive index.
Outgoing: 1.4931

Incoming: Given Cc1ccccc1 [toluene] , state its recorded refractive index.
Outgoing: 1.4941

Incoming: Given CCCCc1ccccc1 [butylbenzene] , state its recorded refractive index.
Outgoing: 1.4874

Incoming: Given c1ccccc1 [benzene] , state its recorded refractive index.
Outgoing: 1.4979

Incoming: Given CCC(=O)c1ccccc1 [ethyl phenyl ketone] , state its recorded refractive index.
Outgoing: 1.5245
